B1: library; numbered along this chain (parent)
chain: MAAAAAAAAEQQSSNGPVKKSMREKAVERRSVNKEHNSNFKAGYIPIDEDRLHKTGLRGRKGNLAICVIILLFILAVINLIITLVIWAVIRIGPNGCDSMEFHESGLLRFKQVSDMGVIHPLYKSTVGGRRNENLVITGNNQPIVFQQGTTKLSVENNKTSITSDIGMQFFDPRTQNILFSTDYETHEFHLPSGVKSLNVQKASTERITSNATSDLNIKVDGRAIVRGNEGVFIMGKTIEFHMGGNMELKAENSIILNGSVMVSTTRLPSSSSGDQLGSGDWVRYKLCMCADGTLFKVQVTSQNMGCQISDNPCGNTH

# Variants of: B1
# test.protocol: SGCB cell-surface expression functional score (HA stain, bin4 vs bin1, normalised to synonymous) (log10 ratio); higher = more cell-surface SGCB (functional)
// map SGCB cell-surface expression functional score (log10) onto a label; ranges low class (below -0.4), middle class (-0.4 to below 0.2), high class (0.2 or more)

INSERT INTO assay_data (var, answer_label) VALUES
  ('M100S', 'low class'),
  ('I208A', 'low class'),
  ('A203H', 'low class'),
  ('A2D', 'middle class'),
  ('G129M', 'low class'),
  ('L72V', 'high class'),
  ('Q142G', 'middle class'),
  ('G231D', 'middle class'),
  ('N304K', 'middle class'),
  ('A8P', 'high class'),
  ('T238C', 'high class'),
  ('K202D', 'low class'),
  ('H187Q', 'middle class'),
  ('H120M', 'low class'),
  ('T138P', 'low class'),
  ('C67L', 'high class'),
  ('Y184T', 'low class'),
  ('I256A', 'middle class'),
  ('E156M', 'middle class'),
  ('P46A', 'middle class'),
  ('F189K', 'low class'),
  ('N253L', 'high class'),
  ('D172M', 'high class'),
  ('L216A', 'low class'),
  ('A6I', 'high class'),
  ('M305G', 'low class'),
  ('A203P', 'low class'),
  ('E24L', 'middle class'),
  ('G56L', 'high class'),
  ('V195W', 'high class'),
  ('M168H', 'low class'),
  ('E240Y', 'high class'),
  ('M1I', 'low class'),
  ('P17N', 'middle class'),
  ('S31W', 'high class'),
  ('L198P', 'low class'),
  ('L84F', 'low class'),
  ('D48R', 'middle class'),
  ('Q147I', 'middle class'),
  ('I166M', 'middle class'),
  ('K159V', 'middle class'),
  ('P313I', 'low class'),
  ('I81Y', 'low class'),
  ('Q142S', 'middle class'),
  ('N39Y', 'middle class'),
  ('L80M', 'high class'),
  ('E185C', 'high class'),
  ('R23S', 'middle class'),
  ('C307K', 'high class'),
  ('G222C', 'high class'),
  ('M247H', 'high class'),
  ('F233E', 'high class'),
  ('Q112H', 'middle class'),
  ('V113N', 'low class'),
  ('H53Y', 'high class'),
  ('K237G', 'middle class'),
  ('K237R', 'high class'),
  ('K297P', 'middle class'),
  ('I78D', 'middle class'),
  ('E248D', 'high class'),
  ('N246S', 'middle class'),
  ('V263Q', 'low class'),
  ('N211W', 'low class'),
  ('L75F', 'middle class'),
  ('R130Q', 'high class'),
  ('E248N', 'high class'),
  ('V68C', 'high class');
